biological target: human Claudin18.2 (human); assay: cell-based or functional assay
Classification field: y = CDC EC50 at or over 1 µg/mL; n = CDC EC50 under 1 µg/mL.

For this binder, is measured CDC EC50 1 µg/mL or higher? 271B1B6 (antibody, V domains shown) VH: QAYLQQSGAELVRSGASVKMSCKASGYTFTNYNIHWVKQTPGQGLEWIGYIYPGNGGNYYNQKFKGKATLTADTSSITAYMQISSLTSEDSAVYFCARDYYGNSFAYWGQGTLVTVSA VL: DIVMTQSPSSLTVTAGEKVTMNCKSSQSLLNSGNQKNYLTWYQQKPGQPPKLLIYWASTRESGVPDRFTGSGSGTDFTLTISSVQAEDLAIYYCQNDYYYPLTFGAGTKLELK
y

For this binder, is measured CDC EC50 1 µg/mL or higher? 213B10A4 (antibody, V domains shown) VH: QAYVQQSGAELVRSGASVKMSCRASGYTFTSYNMHWVKQTPGQGLEWIGYIYPGNGGTYYNQKFKGKATLTADTSSSTAYMQISSLTSEDSAVYFCATGRGFAYWGQGTLVTVSA VL: DIVMTQSPSSLTVTAGEKVTMSCKSSQSLLNSGNQKNYLTWYQQKPGQPPKLLIYRASTRESGVPDRFTGSGFGTDFTLTISSVQAEDLAVYYCQNDYSYPLTFGAGTKLELK
y

For this binder, is measured CDC EC50 1 µg/mL or higher? 256C3D3 (antibody, V domains shown) VH: QAYLQQSGAELVRSGASVKMSCKASGYAFTSHNMHWVKQTPGQGLEWIGYISPGNGYTNYNQKFRGKATLTADTSSSTAYMQIGSLTSEDSAVYFCTRDYYGNSFAYWGQGTLVTVSA VL: DIVMTQSPSSLTEKAGERVSMSCKSSQSLFNSGNQKNYLTWYQQKPGQPPKLLIYWASTRESGVPDRFTGSGSGTDFTLTISSVQAEDLAVYYCQNNYWFPFTFGAGTKLELK
y

For this binder, is measured CDC EC50 1 µg/mL or higher? 430B3F1 (antibody, V domains shown) VH: DVQLVESGGGLVQPGGSRKLSCAASGFTFSGFGMHWIRQTPEKGLEWVAYISSGGRPIYYADTVQGRFTISRDNPKNTLFLQMTSLRSEDTAMYFCARFYYGNSFDHWGQGTLVTISS VL: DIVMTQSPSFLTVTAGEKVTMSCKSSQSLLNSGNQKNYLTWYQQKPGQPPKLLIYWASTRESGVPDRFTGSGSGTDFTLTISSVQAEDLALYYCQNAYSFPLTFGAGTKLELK
y

For this binder, is measured CDC EC50 1 µg/mL or higher? 418D2F9 (antibody, V domains shown) VH: DVQLVESGGGLVQPGGSRKLSCAASGFTFSSFGMHWVRQAPEKGLEWVAYINTGSSTIYYADTVKGRFTISRDNPKNTLFLQMTSLRSEDTAMYYCARIYYGNSFVYWGQGTLVTVSA VL: DIVMTQSPSSLTVTAGEKVTMSCKSSQSLLNSGNQKNYLTWYQQKPGQPPKLLIYWASTRESGVPDRFTGSGSGTDFTLTISSVQAEDLAVYYCQNDYSYPLTFGAGTKLELK
n

The reported numbers originate from patent US20220073643A1.
